Tested on: Human hepatocarcinoma 7 (Huh7) cells
Assay: Huh-7 CC50 (CellTiter Glo viability)
Assay type: cell-based
Settings: 48 hours
Reported endpoint: CC50

IN: Would you kindly share the measured CC50 for CCOC(=O)[C@H](C)NP(=O)(OC[C@@]1(CF)O[C@@H](c2ccc3c(N)ncnn23)[C@H](O)[C@@H]1O)Oc1ccc(C(C)(C)C)cc1 (single isomer, unassigned) [Example 49] ?
OUT: > 25 µM

IN: Would you kindly share the measured CC50 for CCC(=O)O[C@H]1[C@H](c2ccc3c(N)ncnn23)O[C@](CF)(COP(=O)(N[C@@H](C)C(=O)OC)Oc2ccccc2)[C@H]1OC(=O)CC (stereo partly drawn) [Example 33] ?
OUT: > 25 µM

IN: Would you kindly share the measured CC50 for CCC(=O)O[C@H]1[C@H](c2ccc3c(N)ncnn23)O[C@](CF)(COP(=O)(N[C@@H](C)C(=O)OC2CCCCC2)Oc2ccccc2)[C@H]1OC(=O)CC (stereo partly drawn) [Example 16] ?
OUT: 13.4 µM
